- experimental system: Protein farnesyltransferase (Rattus norvegicus) (UniProt Q04631+Q02293)
- experiment: In vitro inhibition of farnesyl transferase (FT) by using FT [3H]-SPA kit at the dose of 500 uM
- Format: protein-complex assay
readout type: inhibition
Kindly format the answer as number then unit.

Input CN(C)c1ccc(C(=O)N/N=C/c2ccccc2[N+](=O)[O-])cc1 . Output inhibition: 28.3%

# molecule Cc1ccc(S(=O)(=O)NC2(Nc3cccc(C)c3)C(Cl)=C(Cl)C(=O)C(Cl)(Cl)C2(Cl)Cl)cc1 (stereo not given) ; its inhibition = 24.9%

// inhibition value for COc1cccc(C2Nc3ccccc3CN2NS(=O)(=O)c2ccc(C)cc2)c1O (stereo not given) : 16.8%

Noted for Cc1c(/N=C/N(C(=O)c2ccccc2)c2cccc([N+](=O)[O-])c2C)cccc1[N+](=O)[O-] : its inhibition reads 17%

inhibition reading for CC(=O)OCC(COC(C)=O)(CN1C(=O)c2ccccc2C1=O)CN1C(=O)c2ccccc2C1=O : 60.2%

// inhibition value for O=[N+]([O-])c1cc(C(F)(F)F)cc([N+](=O)[O-])c1Oc1ccc(S(=O)(=O)N2CCOCC2)cc1 : 50.8%

# inhibition (molecule: Nc1c(C(=O)Nc2ccccc2)sc2nc3c(c(-c4cccnc4)c12)CCC3 ) is 23.9%

Looking up CCN(CC#N)c1ccc(/C=N/c2ccc(SC)cc2)cc1 , I found its inhibition recorded as 15.8%

The value of inhibition measured for the molecule CCN(CC)c1cccc(OC(=O)Nc2cccc(C(F)(F)F)c2)c1 turned out to be 21.2%

Form field inhibition, entry NC(=O)c1cc2c(c([N+](=O)[O-])c1)-c1c(cc(C(N)=O)cc1[N+](=O)[O-])C2=O : 27.3%
